# tgt: BCR-NTRK2 BaF3 cells (Homo sapiens, UniProt Q16620)
# Construct: fused on or other part: P11274 (Breakpoint cluster region protein)
# Sequence (Q16620 538-807): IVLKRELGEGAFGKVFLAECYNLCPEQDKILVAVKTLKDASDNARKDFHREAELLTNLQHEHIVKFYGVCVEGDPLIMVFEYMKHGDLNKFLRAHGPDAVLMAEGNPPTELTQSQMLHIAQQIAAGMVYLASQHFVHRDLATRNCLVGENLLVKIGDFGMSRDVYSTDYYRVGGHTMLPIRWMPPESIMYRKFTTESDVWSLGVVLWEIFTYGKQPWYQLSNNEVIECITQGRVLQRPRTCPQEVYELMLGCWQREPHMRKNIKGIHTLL
# test-summary: BaF3 BCR-NTRK2 cell proliferation assay (ATPlite)
# condition-summary: read-out: Inhibition of Cell Proliferation IC50, BCR/BaF3 TrkB
Parameter IC50: see the listing below.

Consider the reported IC50 for these compounds:
compound	observation-type	recorded-result
COc1ccc(Nc2ccc(C(=O)c3c[nH]c4ncnc(N5CCCCC5)c34)c(F)n2)cn1 [Compound P-4069]	IC50	> 1 µM
CSc1ccc(Nc2ncc(Cc3c[nH]c4ncc(C)cc34)cn2)cc1 [Compound P-3033]	IC50	< 0.1 µM
Cc1cnc2[nH]cc(Cc3cnc(Nc4cc(-c5ccc(F)cc5)n[nH]4)nc3)c2c1 [Compound P-3028]	IC50	< 1 µM
CCOc1ccc(Nc2ccc(C(=O)c3c[nH]c4ncnc(C)c34)c(F)n2)cn1 [Compound P-4032]	IC50	< 0.1 µM

input: Query (compound): Fc1nc(Nc2ccc(C3CC3)nc2)ccc1Cc1c[nH]c2ncnc(C3CC3)c12 [Compound P-4041] ; field requested: IC50
output: < 0.01 µM

input: Please answer likewise for Cc1cnc2[nH]cc(Cc3cnc(Nc4ccc(S(C)(=O)=O)cc4)nc3)c2c1 [Compound P-3034]
output: < 1 µM

input: Please answer likewise for CCn1ccc(Nc2ncc(Cc3c[nH]c4ncc(C)cc34)cn2)n1 [Compound P-3035]
output: < 1 µM

input: Please answer likewise for CCc1ccc(Nc2ccc(Cc3c[nH]c4ncnc(C)c34)c(F)n2)cn1 [Compound P-4009]
output: < 0.01 µM
